All values here come from the SangsterLogP compilation.

Readings of logP for the listed compounds
measurement kind: logP

>>> reported_result("COc1cc(C(N)=O)ccc1-c1cn2cccnc2n1")
0.7
>>> reported_result("COc1cc(NS(C)(=O)=O)ccc1-c1cn2cccnc2n1")
0.72
>>> reported_result("COc1cc(OS(C)(=O)=O)ccc1-c1cn2cccnc2n1")
1.05
>>> reported_result("COc1cc(C(N)=O)ccc1-c1nc2cnccc2[nH]1")
1.18
>>> reported_result("COc1ccc(-c2cn3cc(N)cnc3n2)c(OC)c1")
1.68
>>> reported_result("COc1ccc(-c2nc3ncccc3[nH]2)c(OC)c1")
2.56
>>> reported_result("COc1cc(S(C)=O)ccc1-c1nc2ncc(N)cc2[nH]1 (stereo not given)")
0.33
>>> reported_result("COc1ccc(-c2cn3cccnc3n2)c(OC)c1")
1.94
>>> reported_result("COc1ccc(-c2nc3ncc(N)cc3[nH]2)c(OC)c1")
1.62
>>> reported_result("COc1cc(SC)ccc1-c1cn2cccnc2n1")
2.44
